test system: HOP-62; test: NCI tumour cell line growth inhibition, 48 h
Calls of active or inactive are those of the source. No stated cut-off is given here; in the data, active = GI50 up to about 1.1 µM and inactive = higher. Square brackets hold non-standard residues; d marks the D form. Peptide text beside a SMILES is read from it. * marks the point of attachment. X26 = COC1=CC(=O)N(C(=O)[C@@H](O*)C(C)C)[C@H]1Cc1ccccc1; Bn2Val = CC(C)[C@@H](C(=O)*)N(Cc1ccccc1)Cc1ccccc1; NMeV = CN[C@H](C(=O)O)C(C)C; dNMeA = CN[C@H](C)C(=O)O
Would you mind telling me the reported GI50 of each entry?

Reported GI50 for `CC(=N/NC(=S)N(C)C)/C(=N\NC(=S)N(C)C)c1ccccc1` was 2.24 µM (inactive)

Reported GI50 for `Cc1nc2c(=O)n(-c3ccccc3)c3ccccc3c2o1` was > 100 µM (inactive)

Reported GI50 for `O=C(CNc1ccc(Cl)cc1)Nn1c(-c2ccccc2)nc2ccccc2c1=O` was 14.9 µM (inactive)

Reported GI50 for `COc1cccc(C(=O)Nc2c3ccccc3nc3ccccc23)c1OC` was 45.7 µM (inactive)

Reported GI50 for COC1(C)C(=O)N2C1N(C(=O)OCc1ccccc1)CC2(C)C (centres undefined) was > 100 µM (inactive)

Reported GI50 for COC1=CC(=O)N(C(=O)[C@@H](OC(=O)[C@@H](C)N(C)C(=O)[C@@H]2CCCN2C(=O)[C@H](C(C)C)N(C)C(=O)[C@@H](NC(=O)[C@H](C(C)C)N(Cc2ccccc2)Cc2ccccc2)C(C)C)C(C)C)[C@H]1Cc1ccccc1 (Bn2Val-V[NMeV]P[dNMeA]-X26) was > 57.3 µM (inactive)

Reported GI50 for COc1ccccc1NC(=O)CC(=O)N1N=C(C)C(/N=N/c2ccc(C(=O)O)cc2)C1=O (centres undefined) was > 100 µM (inactive)

Reported GI50 for `COc1ccc2c(c1)c(=O)c1c(NCCN(C)C)ccc3nnn2c31` was 2.82 µM (inactive)

Reported GI50 for O=C(O)C12C3C4C1C1C2C3C41I (centres undefined) was > 100 µM (inactive)

Reported GI50 for COc1cc([C@@H]2c3cc4c(cc3[C@@H](NC(=O)c3ccccc3)C3COC(=O)[C@@H]32)OCO4)cc(OC)c1O (some centres undefined) was 2.54 µM (inactive)

Reported GI50 for `O=C1C(Cl)=C(NCCF)C(=O)c2ncccc21` was 2.04 µM (inactive)

Reported GI50 for O=C(c1ccccc1)C(c1ccccc1)C1(O)C(=O)Nc2c(Cl)cc(Cl)cc21 (centres undefined) was > 10 µM (inactive)

Reported GI50 for COc1cc(CC2C(=O)OCC2[C@@H](OC(C)=O)c2ccc3c(c2)OCO3)c(Br)c(OC)c1OC (some centres undefined) was > 100 µM (inactive)

Reported GI50 for CC1(C)CNCC(C)(OCc2ccccc2)C(=O)NC(C)(C)CNCC(C)(OCc2ccccc2)C(=O)N1 (centres undefined) was > 10 µM (inactive)

Reported GI50 for c1ccc2c3c([nH]c2c1)[C@H]1C2CCCCN2CN1CC3 (some centres undefined) was > 100 µM (inactive)

Reported GI50 for `O=C(/C=C1\N=C(c2ccccc2)N(c2nc3ccc(Sc4ccccc4)cc3[nH]2)C1=O)/C=C/c1ccccc1` was 39.7 µM (inactive)

Reported GI50 for `COc1ccc(OC)c(/C=C/c2cnnc3ccccc23)c1` was 4.12 µM (inactive)

Reported GI50 for N/N=C(\c1nc2ccc(Cl)cc2nc1O)C(O)c1ccc(Cl)c(Cl)c1 (centres undefined) was > 100 µM (inactive)

Reported GI50 for `O=[N+]([O-])c1cc(Cl)ccc1S(=O)(=O)c1cc(Cl)cc2c1NCCC2` was 69.2 µM (inactive)
